Data provenance: the supplement of paper PMC10065799

Biological target: Jak2 (UniProt O60674)
Sequence (O60674 whole entry, looked up): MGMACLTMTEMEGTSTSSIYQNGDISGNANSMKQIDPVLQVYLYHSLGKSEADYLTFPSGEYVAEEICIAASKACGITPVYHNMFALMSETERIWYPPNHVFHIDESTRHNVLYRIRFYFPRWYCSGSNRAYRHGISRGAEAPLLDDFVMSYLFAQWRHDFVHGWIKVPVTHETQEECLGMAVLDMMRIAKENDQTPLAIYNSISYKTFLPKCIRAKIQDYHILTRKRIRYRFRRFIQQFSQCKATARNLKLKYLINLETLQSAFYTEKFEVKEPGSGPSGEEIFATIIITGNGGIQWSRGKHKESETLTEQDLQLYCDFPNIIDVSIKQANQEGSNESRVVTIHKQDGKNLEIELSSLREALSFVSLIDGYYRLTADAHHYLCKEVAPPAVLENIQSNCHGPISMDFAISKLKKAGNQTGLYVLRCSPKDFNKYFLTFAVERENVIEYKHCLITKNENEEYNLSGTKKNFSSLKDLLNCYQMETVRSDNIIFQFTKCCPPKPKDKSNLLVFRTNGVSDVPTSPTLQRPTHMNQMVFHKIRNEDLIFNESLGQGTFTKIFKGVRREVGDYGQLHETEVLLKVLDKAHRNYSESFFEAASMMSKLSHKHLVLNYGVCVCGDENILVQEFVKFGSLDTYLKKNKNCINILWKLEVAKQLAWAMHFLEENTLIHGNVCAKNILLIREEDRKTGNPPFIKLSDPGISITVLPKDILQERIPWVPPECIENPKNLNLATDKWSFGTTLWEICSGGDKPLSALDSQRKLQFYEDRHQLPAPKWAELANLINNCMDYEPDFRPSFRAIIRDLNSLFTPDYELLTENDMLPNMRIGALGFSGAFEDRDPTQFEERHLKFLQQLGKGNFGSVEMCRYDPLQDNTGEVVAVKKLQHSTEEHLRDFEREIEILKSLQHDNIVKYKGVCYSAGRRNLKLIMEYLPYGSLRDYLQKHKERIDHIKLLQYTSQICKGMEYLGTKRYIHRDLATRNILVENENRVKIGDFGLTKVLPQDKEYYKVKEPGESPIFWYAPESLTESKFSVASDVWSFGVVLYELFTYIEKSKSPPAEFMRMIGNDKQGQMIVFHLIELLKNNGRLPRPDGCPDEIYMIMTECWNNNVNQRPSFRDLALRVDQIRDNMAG
Assay: phosphorylation enrichment, bacterial display (enrichment ratio); higher = better substrate or ligand; peptides without Tyr show the background
quantity_measured: phosphorylation enrichment
Kindly provide the number alone.

sequence_data	phosphorylation enrichment
FRIDHYLGKEM [G6PD_Y202_YF]	0.675
SVTCTYSPALI [TP53_Y126_N131I]	1.52
AFEQQYSPIPR [NOX1_Y373]	0.583
YKWAVYCIIGR [NUP93_Y391_R388W]	1.08
PTATSYNPNLA [GABRA1_Y375_T376N]	1.55

Now for a further sequence.
Task item: Can you share its phosphorylation enrichment? I mean this sequence: CGTPEYRAPEI [PRKACA_Y205_L206R]
Reply: 0.984

* * *

Target: Grb2 SH2 (UniProt P62993)
Sequence (P62993 whole entry, looked up): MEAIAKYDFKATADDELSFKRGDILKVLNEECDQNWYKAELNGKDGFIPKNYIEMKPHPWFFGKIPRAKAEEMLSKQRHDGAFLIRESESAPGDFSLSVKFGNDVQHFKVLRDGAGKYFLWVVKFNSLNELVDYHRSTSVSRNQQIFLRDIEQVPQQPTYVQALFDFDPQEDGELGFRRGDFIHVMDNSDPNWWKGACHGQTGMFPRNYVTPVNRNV
Test: SH2 binding enrichment of the phosphorylated peptide, bacterial display (enrichment ratio); higher = better substrate or ligand; peptides without Tyr show the background
quantity_measured: SH2 binding enrichment
Kindly provide the number alone.

sequence_data	tgt	SH2 binding enrichment
SSDPDYRAAVD [GLB1_Y154_L155R]	Grb2 SH2 (UniProt P62993)	0.78
REENGYNTFAS [FGF10_Y161_I156R_YF]	Grb2 SH2 (UniProt P62993)	0.728
LTERGYSFTTT [ACTB_Y198]	Grb2 SH2 (UniProt P62993)	0.746
QTSTDYDIRFF [CSNK2A1_Y131_L128S_YF]	Grb2 SH2 (UniProt P62993)	1.15
PFTDPYFDFEI [ZC3H18_Y371_A368T_YF]	Grb2 SH2 (UniProt P62993)	1.14
DEEPPDRGPFC [SASH1_Y551_Y551D]	Grb2 SH2 (UniProt P62993)	1.01
VSYDEYRYRSV [CFTR_Y515]	Grb2 SH2 (UniProt P62993)	0.978
RPGSGYTNIMQ [PKLR_Y564_R569Q]	Grb2 SH2 (UniProt P62993)	2.13

Task item: Query for Grb2 SH2 (UniProt P62993): what SH2 binding enrichment does the record show for FLENFYDLEKD [MMP3_Y42_K45E_YF] ?
Reply: 0.978

Task item: Query for Grb2 SH2 (UniProt P62993): what SH2 binding enrichment does the record show for PQAVTYATVKH [LILRB4_Y360_K362T] ?
Reply: 0.851

Task item: Query for Grb2 SH2 (UniProt P62993): what SH2 binding enrichment does the record show for GEDLSYGDVPP [IRS1_Y151] ?
Reply: 0.806

Task item: Query for Grb2 SH2 (UniProt P62993): what SH2 binding enrichment does the record show for ARRMEYLASQK [FGFR2_Y616_G613R] ?
Reply: 1.09

Task item: Query for Grb2 SH2 (UniProt P62993): what SH2 binding enrichment does the record show for NSIGNYFKPWF [DHCR24_Y299_YF] ?
Reply: 1.05

* * *

Here the recorded phosphorylation enrichment is given for each entry.
Biological target: Fes (UniProt P07332)
Sequence (P07332 whole entry, looked up): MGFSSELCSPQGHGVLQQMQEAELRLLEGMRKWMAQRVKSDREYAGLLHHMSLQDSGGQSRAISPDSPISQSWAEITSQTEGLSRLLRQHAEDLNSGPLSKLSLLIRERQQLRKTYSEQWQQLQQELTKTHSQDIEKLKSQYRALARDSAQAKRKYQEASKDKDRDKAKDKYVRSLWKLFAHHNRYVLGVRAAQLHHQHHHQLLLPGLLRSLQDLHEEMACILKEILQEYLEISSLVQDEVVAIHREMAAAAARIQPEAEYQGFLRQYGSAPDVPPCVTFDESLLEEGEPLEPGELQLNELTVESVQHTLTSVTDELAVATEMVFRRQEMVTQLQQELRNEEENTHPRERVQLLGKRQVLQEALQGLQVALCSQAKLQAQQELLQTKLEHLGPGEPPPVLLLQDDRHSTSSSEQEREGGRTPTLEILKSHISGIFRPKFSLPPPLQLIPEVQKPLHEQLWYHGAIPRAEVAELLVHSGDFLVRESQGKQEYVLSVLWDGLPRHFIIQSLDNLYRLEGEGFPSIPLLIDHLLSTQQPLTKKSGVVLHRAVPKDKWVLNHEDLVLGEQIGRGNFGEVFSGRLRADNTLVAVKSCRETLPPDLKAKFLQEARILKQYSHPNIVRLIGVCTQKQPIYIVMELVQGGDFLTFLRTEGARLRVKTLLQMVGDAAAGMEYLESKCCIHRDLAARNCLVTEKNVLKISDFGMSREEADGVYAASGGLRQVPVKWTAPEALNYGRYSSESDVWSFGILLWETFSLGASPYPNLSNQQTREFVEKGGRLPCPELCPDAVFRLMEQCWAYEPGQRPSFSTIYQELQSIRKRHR
Assay: phosphorylation enrichment, bacterial display (enrichment ratio); higher = better substrate or ligand; peptides without Tyr show the background
Kindly provide the number alone.

Examples from the recorded data:
sequence_data	quantity_measured	observed_result
NTGGYYDLYGG [PTPN11_Y63_D61G]	phosphorylation enrichment	1.18
VILARYGPAWR [CYP2D6_Y124_F120I]	phosphorylation enrichment	1.09
SHNELYFEAAE [VANGL1_Y344_E347A_YF]	phosphorylation enrichment	1.04
LENSTYQFIRV [CRB1_Y760_YF]	phosphorylation enrichment	1.52
LPKVSYMKAID [GLRA1_Y307_V308M]	phosphorylation enrichment	0.911

Now for a further sequence.
Task item: Can you share its phosphorylation enrichment? I mean this sequence: GSESDYIIMPN [SCARB1_Y133_V135I]
Reply: 0.826
